# runDescription: In vivo pharmacokinetics study after single administration in rats
# Parameters: species or system Sprague Dawley rats
# conditionDescription: Sprague Dawley, rat, plasma, 2 mg/kg; male rats, 2 mpk intravenous injection
measuredQuantity: AUC(0-inf) (ng·h/mL)

>>> number("COCCN1C[C@@H](n2ccc(F)c2)[C@H](NC(=O)Nc2c(C)c(-c3cnc(C4(F)COC4)nc3)nn2-c2ccccc2)C1")
1970

###

# systemName: CYP1A2 (Homo sapiens (Human), UniProt P05177)
# Sequence (P05177 whole entry): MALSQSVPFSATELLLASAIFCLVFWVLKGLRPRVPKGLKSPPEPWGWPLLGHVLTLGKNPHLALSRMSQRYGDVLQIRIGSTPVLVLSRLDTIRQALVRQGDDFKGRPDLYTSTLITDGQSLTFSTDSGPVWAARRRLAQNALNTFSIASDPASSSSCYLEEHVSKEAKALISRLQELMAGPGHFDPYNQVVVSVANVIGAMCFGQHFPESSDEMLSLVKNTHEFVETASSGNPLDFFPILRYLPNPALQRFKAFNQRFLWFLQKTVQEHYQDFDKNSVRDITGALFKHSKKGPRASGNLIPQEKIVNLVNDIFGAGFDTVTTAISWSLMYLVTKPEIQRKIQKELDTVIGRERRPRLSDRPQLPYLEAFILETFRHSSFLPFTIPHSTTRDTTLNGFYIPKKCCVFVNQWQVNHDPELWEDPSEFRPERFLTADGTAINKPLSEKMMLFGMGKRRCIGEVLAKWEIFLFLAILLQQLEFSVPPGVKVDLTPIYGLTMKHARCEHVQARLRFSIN
# Assay type: in vitro ADME
# conditionDescription: microsomes, 10 min
measuredQuantity: IC50

>>> result("COCCN1C[C@@H](n2ccc(F)c2)[C@H](NC(=O)Nc2c(C)c(-c3cnc(C4(F)COC4)nc3)nn2-c2ccccc2)C1")
"> 0.05 µM"

###

# runDescription: In vivo pharmacokinetics study after single administration in rats
# Parameters: species or system Sprague Dawley rats
# conditionDescription: Sprague Dawley, rat, plasma, 2 mg/kg; male rats, 2 mpk intravenous injection; read-out: Vdss
measuredQuantity: Vd (L/kg)

>>> number("COCCN1C[C@@H](n2ccc(F)c2)[C@H](NC(=O)Nc2c(C)c(-c3cnc(C4(F)COC4)nc3)nn2-c2ccccc2)C1")
0.7

###

# runDescription: In vivo pharmacokinetics study after single administration in rats
# Design: species or system Sprague Dawley rats
# conditionDescription: Sprague Dawley, rat, plasma, 300 mg/kg; male rats, 300 mpk oral
measuredQuantity: bioavailability (%)

>>> number("COCCN1C[C@@H](n2ccc(F)c2)[C@H](NC(=O)Nc2c(C)c(-c3cnc(C4(F)COC4)nc3)nn2-c2ccccc2)C1")
71.1

###

# runDescription: In vivo pharmacokinetics study after single administration in rats
# Set-up: species or system Sprague Dawley rats
# conditionDescription: Sprague Dawley, rat, plasma, 300 mg/kg; male rats, 300 mpk oral
measuredQuantity: AUC(0-inf)

>>> result("COCCN1C[C@@H](n2ccc(F)c2)[C@H](NC(=O)Nc2c(C)c(-c3cnc(C4(F)COC4)nc3)nn2-c2ccccc2)C1")
"210 µg·h/mL"

###

# runDescription: In vivo pharmacokinetics study after single administration in Beagle dogs
# conditionDescription: dog, plasma, 15 mg/kg; male Beagle dogs, 15 mpk oral
measuredQuantity: AUC(0-inf) (ng·h/mL)

>>> number("COCCN1C[C@@H](n2ccc(F)c2)[C@H](NC(=O)Nc2c(C)c(-c3cnc(C4(F)COC4)nc3)nn2-c2ccccc2)C1 [Compounds of formula (1)]")
12600

###

# runDescription: In vivo pharmacokinetics study after single administration in Beagle dogs
# conditionDescription: dog, plasma, 15 mg/kg; male Beagle dogs, 15 mpk oral
measuredQuantity: Cmax (ng/mL)

>>> number("COCCN1C[C@@H](n2ccc(F)c2)[C@H](NC(=O)Nc2c(C)c(-c3cnc(C4(F)COC4)nc3)nn2-c2ccccc2)C1")
4560

###

# systemName: CYP2C19 (Homo sapiens (Human))
# Sequence (P33261 whole entry): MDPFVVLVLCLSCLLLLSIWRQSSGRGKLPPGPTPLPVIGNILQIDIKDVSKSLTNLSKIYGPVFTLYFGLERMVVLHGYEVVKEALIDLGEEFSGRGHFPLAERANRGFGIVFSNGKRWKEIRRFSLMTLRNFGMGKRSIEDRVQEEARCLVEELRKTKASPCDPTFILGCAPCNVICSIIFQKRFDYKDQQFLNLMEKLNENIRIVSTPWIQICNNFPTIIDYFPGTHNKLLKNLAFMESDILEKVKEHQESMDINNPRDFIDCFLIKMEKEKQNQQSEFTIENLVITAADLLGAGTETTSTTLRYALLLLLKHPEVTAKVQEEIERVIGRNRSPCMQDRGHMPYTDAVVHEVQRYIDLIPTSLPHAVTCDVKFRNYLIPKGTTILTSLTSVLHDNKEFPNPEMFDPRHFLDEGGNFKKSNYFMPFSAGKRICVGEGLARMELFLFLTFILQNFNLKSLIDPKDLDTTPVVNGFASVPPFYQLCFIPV
measuredQuantity: IC50

>>> result("COCCN1C[C@@H](n2ccc(F)c2)[C@H](NC(=O)Nc2c(C)c(-c3cnc(C4(F)COC4)nc3)nn2-c2ccccc2)C1")
"> 50 µM"

###

# runDescription: In vivo pharmacokinetics study after single administration in Beagle dogs
# conditionDescription: dog, plasma, 15 mg/kg; male Beagle dogs, 15 mpk oral
# Experimental: Experimental Example 4: In Vivo Pharmacokinetics Study after Single Administration in Beagle Dogs Male Beagle dogs were used as the test animals, and the plasma concentrations of the compounds were determined after a single administration and the pharmacokinetic behavior was evaluated. Beagle (male, 6 to 12 kg, more than 6 months old, Beijing Mars Biotechnology Co., Ltd.) […]
measuredQuantity: bioavailability (%)

>>> number("COCCN1C[C@@H](n2ccc(F)c2)[C@H](NC(=O)Nc2c(C)c(-c3cnc(C4(F)COC4)nc3)nn2-c2ccccc2)C1")
91.3
